Readings of AST for the listed substances
Settings: mouse, in vivo, sc, 50 mg/kg
Could you write the number and then its unit?

Here are 3 substances together with their reported answers.
substance | resultValue
ISIS 416852: MOE gapmer, nucleobases 1275 to 1318 of SEQ ID NO: 1 (Table 8) (antisense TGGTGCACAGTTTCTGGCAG; MOE gapmer, wing and gap sizes not given here) | 91 IU/L
ISIS 416858: MOE gapmer, nucleobases 1275 to 1318 of SEQ ID NO: 1 (Table 8) (antisense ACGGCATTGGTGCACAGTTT; MOE gapmer, wing and gap sizes not given here) | 547 IU/L
ISIS 416859: MOE gapmer, nucleobases 1275 to 1318 of SEQ ID NO: 1 (Table 8) (antisense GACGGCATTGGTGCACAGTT; MOE gapmer, wing and gap sizes not given here) | 293 IU/L

Task item: Endpoint output: AST of ISIS 416851: MOE gapmer, nucleobases 1275 to 1318 of SEQ ID NO: 1 (Table 8) (antisense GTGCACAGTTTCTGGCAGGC; MOE gapmer, wing and gap sizes not given here) . Value?
Reply: 76 IU/L
